B1: PhoQ; a variant is named by its letters at X, in order, P23837 (parent)
chain: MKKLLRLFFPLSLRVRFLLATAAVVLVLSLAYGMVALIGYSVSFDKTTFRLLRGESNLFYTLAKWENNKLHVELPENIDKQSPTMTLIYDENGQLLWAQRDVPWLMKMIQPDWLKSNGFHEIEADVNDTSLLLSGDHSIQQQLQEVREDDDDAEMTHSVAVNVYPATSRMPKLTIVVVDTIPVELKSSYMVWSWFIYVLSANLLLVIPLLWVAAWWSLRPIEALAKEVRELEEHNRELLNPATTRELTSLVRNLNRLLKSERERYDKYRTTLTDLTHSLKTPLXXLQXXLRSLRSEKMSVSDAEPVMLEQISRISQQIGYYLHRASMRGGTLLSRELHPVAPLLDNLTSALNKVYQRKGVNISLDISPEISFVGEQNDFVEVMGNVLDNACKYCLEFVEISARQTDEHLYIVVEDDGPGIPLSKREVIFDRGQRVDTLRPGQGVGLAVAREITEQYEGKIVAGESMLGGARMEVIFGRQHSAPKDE

Variants of: B1
Test: enrichment ratio after two sorts for PhoP signalling (ratio (wild type AVST 3.29)); higher = more functional
Conditions: with PhoP (E. coli)
In all, about 140,000 sequences were measured (“enrichment ratio after two sorts for PhoP signalling”: median about 0, highest 2% from about 11 on). The sample as a whole holds a higher share of the highest values than the screen did.
Measured Metric: enrichment ratio

[[record]]
mutation_string = "DLMM"
result = "≤ 0.25"

[[record]]
mutation_string = "GCMG"
result = 16.9

[[record]]
mutation_string = "LWID"
result = "≤ 0.25"

[[record]]
mutation_string = "GLPR"
result = "≤ 0.25"

[[record]]
mutation_string = "KCCN"
result = "≤ 0.25"

[[record]]
mutation_string = "MMWC"
result = "≤ 0.25"

[[record]]
mutation_string = "HWKG"
result = "≤ 0.25"

[[record]]
mutation_string = "PMHD"
result = "≤ 0.25"

[[record]]
mutation_string = "ACDS"
result = 0.253

[[record]]
mutation_string = "KSWC"
result = "≤ 0.25"

[[record]]
mutation_string = "GQIV"
result = 0.651

[[record]]
mutation_string = "ACLA"
result = 11.6

[[record]]
mutation_string = "MSTI"
result = 18.2

[[record]]
mutation_string = "ACLC"
result = 12.2

[[record]]
mutation_string = "AHNC"
result = "≤ 0.25"

[[record]]
mutation_string = "TGWC"
result = 13.8

[[record]]
mutation_string = "RVDS"
result = "≤ 0.25"

[[record]]
mutation_string = "FPHA"
result = "≤ 0.25"

[[record]]
mutation_string = "ACYM"
result = 0.253

[[record]]
mutation_string = "GCGG"
result = "≤ 0.25"

[[record]]
mutation_string = "THNV"
result = "≤ 0.25"

[[record]]
mutation_string = "QPWC"
result = "≤ 0.25"

[[record]]
mutation_string = "GCCG"
result = 18.1

[[record]]
mutation_string = "ICYL"
result = "≤ 0.25"

[[record]]
mutation_string = "MSGA"
result = 0.29

[[record]]
mutation_string = "ACIC"
result = 9.45

[[record]]
mutation_string = "GQIG"
result = 23.8

[[record]]
mutation_string = "TSWC"
result = 17.5

[[record]]
mutation_string = "YAWC"
result = "≤ 0.25"

[[record]]
mutation_string = "LPNQ"
result = "≤ 0.25"

[[record]]
mutation_string = "ACLS"
result = 6.09

[[record]]
mutation_string = "MSGQ"
result = 14.3

[[record]]
mutation_string = "MSGG"
result = "≤ 0.25"

[[record]]
mutation_string = "FCGM"
result = "≤ 0.25"

[[record]]
mutation_string = "RRES"
result = "≤ 0.25"

[[record]]
mutation_string = "ACNS"
result = "≤ 0.25"

[[record]]
mutation_string = "GYIG"
result = "≤ 0.25"

[[record]]
mutation_string = "WVGL"
result = "≤ 0.25"

[[record]]
mutation_string = "NGPW"
result = "≤ 0.25"

[[record]]
mutation_string = "ACLN"
result = 13.6

[[record]]
mutation_string = "GCVG"
result = "≤ 0.25"

[[record]]
mutation_string = "YKNN"
result = "≤ 0.25"

[[record]]
mutation_string = "MSFL"
result = 13.3

[[record]]
mutation_string = "FRYS"
result = "≤ 0.25"

[[record]]
mutation_string = "DRRP"
result = "≤ 0.25"

[[record]]
mutation_string = "ACLI"
result = 5.06

